# Tested on: SUDHL5 cells
# Protocol summary: Antiproliferation assay (CellTiter-Glo, 72 h), SUDHL5
# Format: cell-based
# Experimental parameters: IC50, median; SUDHL5, 72 h; read-out: Antiproli SUDHL5 [M] (median)
Property measured: IC50 (M)

Below: 4 compounds and their reported IC50.
[
  {
    "Compound": "CCc1c2c(nn1C)CCCN(CC(F)F)CCn1c(C(=O)O)c(CCCOc3cccc4cc(F)ccc34)c3ccc(Cl)c-2c31 (racemic) [Example 118]",
    "Tgt": "SUDHL5 cells",
    "Property measured": "IC50",
    "Quantitative result": "5.5e-07"
  },
  {
    "Compound": "Cc1c2c(nn1C)COCC(F)(F)CCn1c(C(=O)O)c(CCCOc3cccc4ccccc34)c3ccc(Cl)c-2c31 (single isomer, unassigned; enantiomer 1) [Example 56]",
    "Tgt": "SUDHL5 cells",
    "Property measured": "IC50",
    "Quantitative result": "3.4e-07"
  },
  {
    "Compound": "CCc1nn(CCN2CCOCC2)c2c1-c1c(Cl)ccc3c(CCCOc4cccc5ccccc45)c(C(=O)O)n(c13)CCCCOC2 (single isomer, unassigned; enantiomer 1) [Example 9]",
    "Tgt": "SUDHL5 cells",
    "Property measured": "IC50",
    "Quantitative result": "3.7e-07"
  },
  {
    "Compound": "CCc1c2c(nn1C)CCCN(CC(F)F)CCn1c(C(=O)O)c(CCCOc3cccc4cc(F)ccc34)c3ccc(Cl)c-2c31 [Example 120]",
    "Tgt": "SUDHL5 cells",
    "Property measured": "IC50",
    "Quantitative result": "7e-06"
  }
]

P. CCc1c2c(nn1C)CCCN(CC(F)F)CCn1c(C(=O)O)c(CCCOc3cccc4cc(F)ccc34)c3ccc(Cl)c-2c31 [Example 119]
Q. CCc1nn(CCN2CCOCC2)c2c1-c1c(Cl)ccc3c(CCCOc4cccc5ccccc45)c(C(=O)O)n(c13)CCCCOC2 (racemic) [Example 8]
R. CCc1c2c(nn1C)COC/C=C\Cn1c(C(=O)O)c(CCCOc3cccc4ccccc34)c3ccc(Cl)c-2c31 (racemic)
S. CCc1nn(C)c2c1-c1c(Cl)ccc3c(CCCOc4cccc5cc(F)ccc45)c(C(=O)O)n(c13)CCCCN(C)C2 (single isomer, unassigned; enantiomer 2)
T. CCc1c2c(nn1C)COCC1CC1Cn1c(C(=O)O)c(CCCOc3cccc4cc(F)ccc34)c3ccc(Cl)c-2c31 (racemic) [Example 106]
Arrange these 5 compounds in increasing order of IC50. // ordering of labels required in reply
S, P, Q, R, T

1. CCc1c2c(nn1C)COCC1(CCn3c(C(=O)O)c(CCCOc4cccc5cc(F)ccc45)c4ccc(Cl)c-2c43)CC1
2. CCc1c2c(nn1C)COCC(O)CCn1c(C(=O)O)c(CCCOc3cccc4cc(F)ccc34)c3ccc(Cl)c-2c31 (centres unmarked)
Could you determine which record has the numerically smaller IC50? Candidates: 1 and 2 Please respond with the label that marks your chosen entry.
2
(2: 1.9e-07 M, 1: 3.1e-07 M)

A. CCc1c2c(nn1C)CCCN(C)CCn1c(C(=O)O)c(CCCOc3cccc4cc(F)ccc34)c3ccc(Cl)c-2c31 (single isomer, unassigned) [Example 116]
B. CCc1c2c(nn1C)COCC1CC1Cn1c(C(=O)O)c(CCCOc3cccc4cc(F)ccc34)c3ccc(Cl)c-2c31 (racemic) [Example 103]
Could you determine which record has the numerically smaller IC50? Candidates: A and B Please respond with the label that marks your chosen entry.
A
(A: 3.4e-07 M, B: 5.5e-07 M)

a. CCc1c2c(nn1C)CN(CC(F)F)CCCCn1c(C(=O)O)c(CCCOc3cccc4cc(F)ccc34)c3ccc(Cl)c-2c31 (racemic)
b. CCc1c2c(nn1C)COCC1CC1Cn1c(C(=O)O)c(CCCOc3cccc4cc(F)ccc34)c3ccc(Cl)c-2c31 (single isomer, unassigned; (-)) [Example 108]
IC50 comparison. Which is larger, a or b ? Please respond with the label that marks your chosen entry.
b
(b: 1e-05 M, a: 3.4e-07 M)

----------
# Test system: DMS-114 cells
# Protocol summary: Antiproliferation assay (CellTiter-Glo, 72 h), DMS-114
# Type: cell-based
# Experimental parameters: IC50, median; DMS-114, 72 h; read-out: Antiproli DMS-114 [M] median
Recorded IC50, one value per entry.
Number in M, nothing else.

Below: 2 compounds and their reported IC50.
[
  {
    "Compound": "Cc1c2c(nn1C)COCCCCn1c(C(=O)O)c(CCCOc3cccc4ccccc34)c3ccc(Cl)c-2c31 (single isomer, unassigned; enantiomer 1)",
    "Unit name": "M",
    "Quantitative result": "1.76e-06"
  },
  {
    "Compound": "Cc1c2c(nn1C)CN(C)CCCCn1c(C(=O)O)c(CCCOc3cccc4ccccc34)c3ccc(Cl)c-2c31 (single isomer, unassigned; enantiomer 1)",
    "Unit name": "M",
    "Quantitative result": "1.32e-06"
  }
]

Consider the compound Cc1c2c(nn1C)COCCCCn1c(C(=O)O)c(CCCOc3cccc4cc(F)ccc34)c3ccc(Cl)c-2c31 (single isomer, unassigned; enantiomer 1) and give its measured IC50.
6.42e-07

----------
# System: SUDHL5 cells
# Protocol summary: Induction of cytotoxicity (CellTiter-Glo, 5 h), SUDHL5
# Experimental parameters: Homo sapiens, SU-DHL-5, 5 h, read-out: Cytotox SUDHL5 [M] (median), IC50, median; SUDHL5, 5 h
Recorded IC50, one value per entry.
Number in M, nothing else.

Below: 4 compounds and their reported IC50.
[
  {
    "Compound": "CCc1nn(CCN2CCOCC2)c2c1-c1c(Cl)ccc3c(CCCOc4cccc5ccccc45)c(C(=O)O)n(c13)CCCCN(C)C2 (racemic) [Example 45]",
    "Quantitative result": "8.1e-06"
  },
  {
    "Compound": "Cc1nn(C)c2c1-c1c(Cl)ccc3c(CCCOc4cccc5ccccc45)c(C(=O)O)n(c13)CCCCOC2 (single isomer, unassigned; enantiomer 1) [Example 3]",
    "Quantitative result": "6.5e-07"
  },
  {
    "Compound": "CCc1c2c(nn1C)CN(C)CCC(F)(F)Cn1c(C(=O)O)c(CCCOc3cccc4cc(F)ccc34)c3ccc(Cl)c-2c31 (racemic) [Example 129]",
    "Quantitative result": "3.3e-07"
  },
  {
    "Compound": "Cc1c2c(nn1C)COCC1CCC1Cn1c(C(=O)O)c(CCCOc3cccc4ccccc34)c3ccc(Cl)c-2c31 (single isomer, unassigned; stereoisomer 2) [Example 64]",
    "Quantitative result": "5.4e-07"
  }
]

Consider the compound CCc1c2c(nn1C)COCC1(CCn3c(C(=O)O)c(CCCOc4cccc5cc(F)ccc45)c4ccc(Cl)c-2c43)CC1 (racemic) [Example 109] and give its measured IC50.
5.9e-07

Consider the compound Cc1c2c(nn1CCCN1CCN(C)CC1)COCCCCn1c(C(=O)O)c(CCCOc3cccc4ccccc34)c3ccc(Cl)c-2c31 (racemic) [Example 48] and give its measured IC50.
1.8e-07

----------
# System: SUDHL10 cells
# Protocol summary: Induction of caspase-3/7 activity (Caspase-Glo 3/7), SUDHL10
# Type: cell-based
# Experimental parameters: EC50, median; SUDHL10, 3 h treatment; listed as 082
Property measured: EC50 (µM)
Number in µM, nothing else.

Consider the compound Cc1c2c(nn1C)COCC1CC1Cn1c(C(=O)O)c(CCCOc3cccc4ccccc34)c3ccc(Cl)c-2c31 (single isomer, unassigned) and give its measured EC50.
1.1

----------
# System: SUDHL5 cells
# Protocol summary: Induction of cytotoxicity (CellTiter-Glo, 5 h), SUDHL5
# Experimental parameters: read-out: Cytotox SUDHL5 [M] (median); IC50, median; SUDHL5, 5 h; listed as 085
Property measured: IC50 (M)
Number in M, nothing else.

Consider the compound CCc1c2c(nn1C)COCC(F)(F)CCn1c(C(=O)O)c(CCCOc3cccc4cc(F)ccc34)c3ccc(Cl)c-2c31 (single isomer, unassigned) [Example 85] and give its measured IC50.
3e-07

----------
# System: SUDHL10 cells
# Protocol summary: Induction of caspase-3/7 activity (Caspase-Glo 3/7), SUDHL10
# Format: cell-based
# Experimental parameters: EC50, median; SUDHL10, 3 h treatment; listed as 083
Property measured: EC50 (nM)
Number in nM, nothing else.

Consider the compound Cc1c2c(nn1C)COCC1CC1Cn1c(C(=O)O)c(CCCOc3cccc4ccccc34)c3ccc(Cl)c-2c31 (single isomer, unassigned) and give its measured EC50.
410

----------
# System: SUDHL10 cells
# Protocol summary: Induction of caspase-3/7 activity (Caspase-Glo 3/7), SUDHL10
# Assay type: cell-based
# Experimental parameters: EC50, median; SUDHL10, 3 h treatment; listed as 078
Property measured: EC50 (µM)
Number in µM, nothing else.

Consider the molecule Cc1c2c(nn1C)COCC1CCC1Cn1c(C(=O)O)c(CCCOc3cccc4ccccc34)c3ccc(Cl)c-2c31 (single isomer, unassigned; enantiomer 1) [Example 78] and give its measured EC50.
3.8
